Each item that follows carries a reported MIC.
Tested on: Corenybacterium minutissimum
assay procedure: In vitro zone of inhibition screening, MIC, Corenybacterium minutissimum
Type: cell-based
condition info: aqueous solution, seeded Mueller-Hinton agar, 24 hours at 35° C.; read-out: Minimum Inhibitory Concentration, CM
Give the number; µg/mL is assumed, so skip it.

{"compound": "CN(C)CCN(Cc1ccccc1)c1ccccn1", "value reported": 5000}
{"compound": "Cc1ccc(/C(=C\\CN2CCCC2)c2ccccn2)cc1", "value reported": 5000}
{"compound": "COc1ccc(CN(CCN(C)C)c2ccccn2)cc1", "value reported": 10000}

Answer with the recorded MIC of CN(C)CCC(c1ccc(Cl)cc1)c1ccccn1 (centres unmarked) only.
5000

Answer with the recorded MIC of CN(C)CCC(c1ccc(Br)cc1)c1ccccn1 (centres unmarked) only.
3000
